FYI, the data here is from patent US20100099610.

# target entity: hGHQ141N, P01241
# Sequence (P01241 27-217 Q167N): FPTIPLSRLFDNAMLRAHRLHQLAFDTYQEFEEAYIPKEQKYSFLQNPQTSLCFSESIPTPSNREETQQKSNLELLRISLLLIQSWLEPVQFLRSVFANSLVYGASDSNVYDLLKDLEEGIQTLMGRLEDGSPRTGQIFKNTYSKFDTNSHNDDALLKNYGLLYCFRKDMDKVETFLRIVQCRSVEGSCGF
property: Activity (RFU/sec/µg), dansyl-cadaverine fluorescence kinetics
Give the number first and the unit second.

Which Activity (RFU/sec/µg), dansyl-cadaverine fluorescence kinetics reading was recorded for the protein GlyPro-mTGase from S. ladakanum (protein) GPDSDERVTPPAEPLDRMPDPYRPSYGRAETIVNNYIRKWQQVYSHRDGRKQQMTEEQREWLSYGCVGVTWVNSGQYPTNRLAFAFFDEDKYKNELKNGRPRSGETRAEFEGRVAKDSFDEAKGFQRARDVASVMNKALENAHDEGAYLDNLKKELANGNDALRNEDARSPFYSALRNTPSFKDRNGGNHDPSKMKAVIYSKHFWSGQDRSGSSDKRKYGDPEAFRPDRGTGLVDMSRDRNIPRSPTSPGESFVNFDYGWFGAQTEADADKTVWTHGNHYHAPNGSLGAMHVYESKFRNWSDGYSDFDRGAYVVTFVPKSWNTAPDKVKQGWP ?
0.48 RFU/sec/µg
